EXPERIMENT DESCRIPTION: gradient 5% acetonitrile 3 min, to 50% in 2 min, to 85% in 15 min, held 3 min, 100 µL/min
CONDITION: column: Zorbax Extend-C18 2.1 x 50 mm; eluents: water / acetonitrile, 0.1% formic acid
REPORTED PROPERTY: RP-LC retention time (s)

MOLECULE: Cc1ccccc1Oc1nccn2c(=O)n(CC(=O)Nc3c(C)cccc3C)nc12
UNIT OF MEASURE: s
RP-LC retention time: 838
//
MOLECULE: Cn1cc(C(=O)N2CCCC2Cc2noc(C3CCCC3)n2)cn1 (stereo not given)
UNIT OF MEASURE: s
RP-LC retention time: 750
//
MOLECULE: Cc1nn(-c2ccc(Cl)cc2)c(C)c1S(=O)(=O)N1CCC(C(=O)N2CCCC2)CC1
UNIT OF MEASURE: s
RP-LC retention time: 868
//
MOLECULE: COCCN1CC2(CCN(S(=O)(=O)c3cc(C)c(C)cc3C)CC2)C1c1ccncc1 (stereo not given)
UNIT OF MEASURE: s
RP-LC retention time: 672
//
MOLECULE: COc1ccc(C(O)CN2CCN(c3ccc(F)cc3)CC2)cc1OC (stereo not given)
UNIT OF MEASURE: s
RP-LC retention time: 636

----------
EXPERIMENT DESCRIPTION: gradient 5% acetonitrile 3 min, to 50% in 2 min, to 85% in 15 min, held 3 min, 100 µL/min
CONDITION: column: Zorbax Extend-C18 2.1 x 50 mm; eluents: water / acetonitrile, 0.1% formic acid
REPORTED PROPERTY: RP-LC retention time (s)

Would you please look over these solved cases?
COMPOUND: CCc1nc(OCC(=O)Nc2ccc(Cl)c(C(F)(F)F)c2)c2ccccc2n1
RP-LC retention time / s: 997

COMPOUND: CCN1C(=O)c2cc(C(=O)Nc3ccc(C)cc3C)nn2CC1(C)C(=O)NC1CCCC1 (stereo not given)
RP-LC retention time / s: 800

COMPOUND: CC1CCN(S(=O)(=O)c2ccc3c(c2)CCCC(=O)N3CC(=O)NCc2ccc(F)cc2)CC1
RP-LC retention time / s: 926

A: CCN1C(=O)NC(c2ccccc2C(F)(F)F)C2=C1CN(CCC(=O)NCC(C)C)C2=O (stereo not given)
B: CCOC(=O)c1cc2ccsc2n1CC(=O)Nc1ccc(F)c(F)c1
Please choose the item with the lower RP-LC retention time value from this pair: A and B Record your answer as the label of the chosen record.
A

----------
EXPERIMENT DESCRIPTION: gradient 5% acetonitrile 3 min, to 50% in 2 min, to 85% in 15 min, held 3 min, 100 µL/min
CONDITION: column: Zorbax Extend-C18 2.1 x 50 mm; eluents: water / acetonitrile, 0.1% formic acid
REPORTED PROPERTY: RP-LC retention time (s)

Here's what some known entries look like.
COMPOUND: Cc1ccsc1C(=O)Nc1cccn2c(C)nnc12
RP-LC retention time [s]: 670
//
COMPOUND: Cc1nnc(C2CCCN(C(=O)c3ccc(S(=O)(=O)N(C)C)cc3)C2)s1 (stereo not given)
RP-LC retention time [s]: 642
//
COMPOUND: O=C(CCS(=O)(=O)c1ccc(Cl)cc1)Nc1nccs1
RP-LC retention time [s]: 679
//
COMPOUND: COc1ccccc1CNS(=O)(=O)c1ccc(F)c(C(=O)Nc2cc(C)ccc2C)c1
RP-LC retention time [s]: 967
//
COMPOUND: CN(C)c1ccc2c(c1)CN(C(=O)C1CCC1)CCO2
RP-LC retention time [s]: 590

a: O=c1cc(Cn2nc3c(-c4nc(-c5ccccc5)no4)cccn3c2=O)nc2ccccn12
b: COc1ccc(-c2nnc(-c3cccnc3NCc3cccc(OC)c3OC)o2)cc1
Which item exceeds the other in RP-LC retention time, a or b ? Lab note: record the label of whichever item you select.
b

----------
EXPERIMENT DESCRIPTION: gradient 5% acetonitrile 3 min, to 50% in 2 min, to 85% in 15 min, held 3 min, 100 µL/min
CONDITION: column: Zorbax Extend-C18 2.1 x 50 mm; eluents: water / acetonitrile, 0.1% formic acid
REPORTED PROPERTY: RP-LC retention time (s)

Recorded RP-LC retention time, per entry:
COMPOUND: CC(CCc1ccccc1)NC(=O)c1cc2sccc2n1Cc1ccc(F)cc1 (centres undefined)
RP-LC retention time / s: 1190
--
COMPOUND: COc1ccc(Cl)cc1Nc1c(-c2nc(C)no2)cnc2nc(C)ccc12
RP-LC retention time / s: 794
--
COMPOUND: Cc1cc(NCc2ccccn2)n2ncnc2n1
RP-LC retention time / s: 562
--
COMPOUND: O=C(CCC(=O)N1CCN(c2ccc(=O)n(-c3ccc(Cl)cc3)n2)CC1)N1CCOCC1
RP-LC retention time / s: 659
--
COMPOUND: CCOC(=O)N1CCN(c2ncc(C(=O)NCc3ccccc3)c(N)n2)CC1
RP-LC retention time / s: 656
--
COMPOUND: N#Cc1ccc(C(=O)N2CCOCCNC(=O)[C@@H]3CCC[C@@H]32)cc1
RP-LC retention time / s: 659

a: O=C(C1CCOC1)N1CCC(N(Cc2ccccc2)C2CCOCC2)CC1 (centres undefined)
b: CCn1c(=O)sc2cc(S(=O)(=O)N3CCC(C(=O)Nc4ccc5c(c4)OCO5)CC3)ccc21
c: CCCCOc1ccc(Nc2cc(Cl)ccc2C(=O)O)cn1
rank_up(items): orders items by reported RP-LC retention time in ascending numerical order. Labels, requested order.
a, b, c
(a: 572 s, b: 863 s, c: 1260 s)

----------
EXPERIMENT DESCRIPTION: gradient 5% acetonitrile 3 min, to 50% in 2 min, to 85% in 15 min, held 3 min, 100 µL/min
CONDITION: column: Zorbax Extend-C18 2.1 x 50 mm; eluents: water / acetonitrile, 0.1% formic acid
REPORTED PROPERTY: RP-LC retention time (s)

ITEM SMILES: Cc1noc(C)c1CC(=O)N1CCOc2ccc(N(C)C)cc2C1
UNIT OF MEASURE: s
RP-LC retention time: 584
--
ITEM SMILES: CC(C)(C)NC(=O)c1ccc(-c2nnc3ccc(NC(=O)C4CC4)cn23)cc1
UNIT OF MEASURE: s
RP-LC retention time: 731

a: O=C(Cc1ccc(Cl)cc1)NCC(=O)Nc1nc2ccccc2[nH]1
b: Cc1sc(-c2noc(C3CC3)n2)cc1S(=O)(=O)N1CCC(C(=O)NCc2ccco2)CC1
Hey, which is lower on measured RP-LC retention time, a or b ? Answer = label.
a

----------
EXPERIMENT DESCRIPTION: gradient 5% acetonitrile 3 min, to 50% in 2 min, to 85% in 15 min, held 3 min, 100 µL/min
CONDITION: column: Zorbax Extend-C18 2.1 x 50 mm; eluents: water / acetonitrile, 0.1% formic acid
REPORTED PROPERTY: RP-LC retention time (s)

ITEM SMILES: Cc1cccc(N(C)C(=O)Cn2c(=O)n(-c3ccc(F)cc3)c(=O)c3c2cc(C)n3C)c1
UNIT OF MEASURE: s
RP-LC retention time: 888

A: CC(C)NC[C@@H](C(=O)N1CCN(c2ncnc3c2[C@H](C)C[C@H]3O)CC1)c1ccc(Cl)cc1
B: CC(C)Cc1nc(N2CCN(C(=O)c3ccc([N+](=O)[O-])cc3)CC2)c(C#N)c2c1COC(C)(C)C2
Field: entry with larger RP-LC retention time (options A / B ). Your answer should be the label of the entry you select.
B

I: Clc1ccc(-c2ccc(CNCc3ccncc3)o2)c(Cl)c1
II: Cc1ccc(C)c(N2CCN(S(=O)(=O)c3cc(-c4cc(C(F)(F)F)[nH]n4)sc3C)CC2)c1
For the pair I and II , which entry has the numerically smaller recorded RP-LC retention time? Answer by stating the label of the chosen item.
I
(I: 742 s, II: 1300 s)

----------
EXPERIMENT DESCRIPTION: gradient 5% acetonitrile 3 min, to 50% in 2 min, to 85% in 15 min, held 3 min, 100 µL/min
CONDITION: column: Zorbax Extend-C18 2.1 x 50 mm; eluents: water / acetonitrile, 0.1% formic acid
REPORTED PROPERTY: RP-LC retention time (s)

// solved cases for RP-LC retention time follow
COMPOUND: Cc1nc2nc(-c3ccc(C(C)(C)C)cc3)nn2c(C)c1CC(=O)N1CCC(C)CC1
UNIT OF MEASURE: s
RP-LC retention time: 1090
//
COMPOUND: Cc1cc(C)c(S(=O)(=O)N2CCCC(C(=O)Nc3ccccc3F)C2)c(C)c1 (centres undefined)
UNIT OF MEASURE: s
RP-LC retention time: 1090
//
COMPOUND: CC(CCNc1ccc(-c2nc(-c3cccc(F)c3)no2)cn1)N1CCCCCC1 (centres undefined)
UNIT OF MEASURE: s
RP-LC retention time: 782

1: CCn1c(=O)n(-c2ccc(F)cc2)c2nc(-c3ccc(F)c(F)c3)nc(C(N)=O)c21
2: Cc1ccccc1C(=O)CC1(O)C(=O)Nc2ccccc21 (centres undefined)
Which entry shows the lesser value of RP-LC retention time here, 1 or 2 ? Please respond with the label that marks your chosen entry.
2

1: Cc1ccc(C2=NC3(CCN(C(=O)c4ccc(C(C)(C)C)cc4)CC3)ON2)cc1
2: CCN(CC)C(=O)c1ccc2oc(CN3CCN(C(=O)NC4CCCC4)CC3)nc2c1
# min-compare on RP-LC retention time between 1 and 2 Which one? Tell me its label.
2

A: O=C(CCC1CCCN(C(=O)Nc2ccc(F)cc2)C1)NCc1ccc(Cl)cc1 (centres undefined)
B: CCCc1c(C)nc2ncnn2c1N1CCN(c2ccccn2)CC1
// compare measured RP-LC retention time, left A , right B , return larger Mark your selection by writing its label.
A
(A: 856 s, B: 583 s)

a: O=C(NCc1ccccc1)C1(CCO)CC12CCOCC2 (centres undefined)
b: Cc1cc(C)n(-c2ccc(C(=O)NC3CCC(C)CC3)cn2)n1 (centres undefined)
Please compare: a and b . Report which one has the smaller RP-LC retention time value. Label of pick, please.
a
(a: 627 s, b: 1010 s)
